Target: HIV-1 pNL4-3 integrase (Human immunodeficiency virus type 1 group M subtype B (isolate NY5) (HIV-1), UniProt P12497)
Test: Determination of enzyme (HIV integrase) inhibitory activity
Conditions: calculated from inhibition rate (fluorescence)
Metric: IC50 (nM)
Hi! Could you send only the number? It should be in nM, unit omitted.

Record excerpt, results attached:
Compound: CC(C)N1CC(C#N)n2cc(-c3ncc(Cc4ccc(F)cc4F)s3)c(=O)c(O)c2C1=O (centres unmarked)
Scale Unit: nM
IC50: 6.4
--
Compound: COC[C@H]1CN(C(C)C)C(=O)c2c(O)c(=O)c(-c3nnc(Cc4ccc(F)c(OC)c4)s3)cn21
Scale Unit: nM
IC50: 17
--
Compound: CCN1C(=O)c2c(O)c(=O)c(-c3nnc(Cc4ccc(F)cc4)s3)cn2C[C@@H]1COC
Scale Unit: nM
IC50: 13
--
Compound: CC(C)N1C(=O)c2c(O)c(=O)c(-c3nnc(Cc4ccc(F)cc4)s3)cn2C[C@@]1(C)C(=O)N1CCCC1
Scale Unit: nM
IC50: 10
--
Compound: CCOC[C@@H]1Cn2cc(-c3ncc(Cc4ccc(F)cc4)s3)c(=O)c(O)c2C(=O)N1CC
Scale Unit: nM
IC50: 6.5

IN: Name the recorded IC50 for `CC(C)N1C[C@](C)(C(=O)N(C)C)n2cc(-c3nnc(Cc4ccc(F)cc4F)s3)c(=O)c(O)c2C1=O` .
OUT: 12

IN: Also `CCNC(=O)[C@@]1(C)CN(C(C)C)C(=O)c2c(O)c(=O)c(-c3nnc(Cc4ccc(F)cc4F)s3)cn21` , if possible.
OUT: 16

IN: Also `CC(C)N1C[C@@](C)(C(=O)NCC2CC2)n2cc(-c3ncc(Cc4ccc(F)cc4)s3)c(=O)c(O)c2C1=O` , if possible.
OUT: 8.4

IN: Also `CCN1C(=O)c2c(O)c(=O)c(-c3nnc(Cc4ccc(F)cc4)s3)cn2[C@H](C)[C@H]1COC` , if possible.
OUT: 9.5

IN: Also `CCCOC[C@H]1CN(C(C)C)C(=O)c2c(O)c(=O)c(-c3nnc(Cc4ccc(F)cc4)s3)cn21` , if possible.
OUT: 8.7

----------
Target: HIV-1 pNL4-3 integrase (Human immunodeficiency virus type 1 group M subtype B (isolate NY5) (HIV-1), UniProt P12497)
Assay: Determination of enzyme (HIV integrase) inhibitory activity
Conditions: calculated from inhibition rate (fluorescence)
Metric: pIC50
# log scale: pIC50 equals minus log10 of the concentration in mol/L

IN: Name the recorded pIC50 for `CO[C@H]1CCN(C(=O)[C@@]2(C)CN(C(C)C)C(=O)c3c(O)c(=O)c(-c4nnc(Cc5ccc(F)cc5)s4)cn32)C1` .
OUT: 7.85

----------
Biological target: HIV-1 pNL4-3 integrase (Human immunodeficiency virus type 1 group M subtype B (isolate NY5) (HIV-1))
Test: Determination of enzyme (HIV integrase) inhibitory activity
Conditions: calculated from inhibition rate (fluorescence)
Metric: pIC50
# log scale: pIC50 equals minus log10 of the concentration in mol/L

Record excerpt, results attached:
Compound: CCN(C)C(=O)[C@]1(C)Cn2cc(-c3nnc(Cc4ccc(F)cc4)s3)c(=O)c(O)c2C(=O)N1C(C)C
pIC50: 8.03
--
Compound: C[C@@]1(C(=O)N2CCC2)CN(C2CC2)C(=O)c2c(O)c(=O)c(-c3ncc(Cc4ccc(F)cc4)s3)cn21
pIC50: 7.82
--
Compound: CNC(=O)C1CN(C)C(=O)c2c(O)c(=O)c(-c3ncc(Cc4ccc(F)cc4F)s3)cn21 (stereo not shown)
pIC50: 8.21
--
Compound: COCCOC[C@@H]1Cn2cc(-c3nnc(Cc4ccc(F)cc4)s3)c(=O)c(O)c2C(=O)N1C1CCC1
pIC50: 7.96
--
Compound: CC(C)N1CC(CC(N)=O)n2cc(-c3ncc(Cc4ccc(F)cc4F)s3)c(=O)c(O)c2C1=O (stereo not shown)
pIC50: 8.17
--
Compound: CC(C)N1C(=O)c2c(O)c(=O)c(-c3nnc(Cc4ccc(F)cc4)s3)cn2CC12CC2
pIC50: 8.07

Please look at the following compound next.
IN: Name the recorded pIC50 for `CCN1C[C@](C)(C(=O)N2CCCC2)n2cc(-c3nnc(Cc4ccc(F)cc4)s3)c(=O)c(O)c2C1=O` .
OUT: 8.02
